Test system: OVCAR-8
Assay: NCI tumour cell line growth inhibition, 48 h
Active and inactive are the calls of the source. Rule as the data show it: active = GI50 up to about 1.1 µM and inactive = higher.
observation_type: GI50

Solved entries:
molecule	target_desc	result
O=C(CCc1ccccc1)NS(=O)(=O)c1ccccc1	OVCAR-8	> 100 µM (inactive)
CC(NC(=O)C(=O)N/N=C1\C[C@@H](c2ccccc2)Nc2ccccc21)c1ccccc1 (stereo not given in full)	OVCAR-8	> 100 µM (inactive)
COc1ccc2cc(C(=O)NCCc3ccccc3)ccc2c1OC	OVCAR-8	79.6 µM (inactive)
CCOC(=O)n1c2ccccc2c(=O)n1CCO	OVCAR-8	> 100 µM (inactive)
Nc1ccc(Cc2ccc(N)c(C(=O)O)c2)cc1C(=O)O	OVCAR-8	> 100 µM (inactive)

I looked up CCOC(=O)c1csc(NC(=O)CN(C)C)n1 and its GI50 for OVCAR-8 was > 100 µM (inactive)

* * *

Tested on: KM-20L2
Assay: NCI tumour cell line growth inhibition, 48 h
Active and inactive are the calls of the source. Rule as the data show it: active = GI50 up to about 1.1 µM and inactive = higher.
GI50: recorded values

Solved entries:
                                   compound               result
0            CCCCOC(=O)CN1C(=O)c2ccccc2C1=O  > 100 µM (inactive)
1  COc1cc(/C=C2/C(=O)N(C(=O)OCC(C)C)C(Cc3cc(OC)c(OC)c(C)c3OC)C(=O)N2Cc2ccccc2)c(OC)c(C)c1OC (centres undefined)  > 100 µM (inactive)
2  CC(NC(=O)C(=O)N/N=C1\C[C@@H](c2ccccc2)Nc2ccccc21)c1ccccc1 (some centres undefined)  > 100 µM (inactive)

Moving on to another compound below.
Please fill in: GI50 reported for C[C@H](N)C(=O)N[C@@H]1[C@H]2C(=C(O)C[C@@H](O)[C@@H]2O)C(=O)O[C@]1(C)C(Cl)Cl [BACTOBOLIN] = 0.262 µM (active)

* * *

System: M14
Assay: NCI tumour cell line growth inhibition, 48 h
The source made the active and inactive calls. Cut-off read from the data, not from the text of the source: active = GI50 up to about 1.1 µM and inactive = higher.
Write down the outcome that applies. Available outcomes: Y = active, N = inactive

# count of solved cases: 4
compound	category
COC(C/C=C\C=C\CC/C=C/CC(C)/C=C/C(=C\C(=O)O)CC(=O)O)/C(C)=C\C=C(/C)C(=O)O (stereo not given)	N
COc1ccc(/C=C/C(=O)c2c(-c3ccccc3)nn(C)c(=O)c2N2CCCC2)cc1	N
CCCCn1c(C)c2c(c1C)C(=O)N(CC(O)CN1CCc3ccccc3C1)C2=O (stereo not given)	N
CC(C)(C)NCC(COc1ccc([N+](=O)[O-])cc1)OP(c1ccccc1)c1ccccc1 (stereo not given)	N

Request: Returns: the outcome recorded for CCC1=NC(C(F)(F)F)(C(F)(F)F)N=C(N2CCOCC2)O1 in this assay.
Response: N

Request: Returns: the outcome recorded for C=C1C(=O)OC2/C=C(\C)C(=O)CC3OC(C)(C)OC3(C)CC(OC(=O)/C(C)=C/C)C12 (stereo not given) in this assay.
Response: N

Request: Returns: the outcome recorded for Nc1ccc(C(=O)N/C(=C\c2ccc3c(c2)OCO3)c2nc3ccc4c(c3[nH]2)C(=O)c2ccccc2C4=O)cc1 in this assay.
Response: N

Request: Returns: the outcome recorded for COC(=O)c1c(C)[n+]([O-])c2cc(Cl)c(Cl)cc2[n+]1[O-] in this assay.
Response: N

Request: Returns: the outcome recorded for COC(=O)C1N=CSCC1(C)O (stereo not given) in this assay.
Response: N

Request: Returns: the outcome recorded for C[C@]12CCC3[C@@H](CC[C@@H]4c5nonc5CC[C@]34C)C1CCC(=O)N2 (stereo not given in full) in this assay.
Response: N

Request: Returns: the outcome recorded for CCCCCCCCCCCCC/C=C1\C[C@H](O)COC1=O in this assay.
Response: N

Request: Returns: the outcome recorded for Nc1ccccc1C(=O)NNC(=O)c1ccccc1N in this assay.
Response: N
